test system: Mitogen-activated protein kinase kinase kinase 5 (Homo sapiens) (UniProt Q99683)
Sequence (Q99683 whole entry, looked up): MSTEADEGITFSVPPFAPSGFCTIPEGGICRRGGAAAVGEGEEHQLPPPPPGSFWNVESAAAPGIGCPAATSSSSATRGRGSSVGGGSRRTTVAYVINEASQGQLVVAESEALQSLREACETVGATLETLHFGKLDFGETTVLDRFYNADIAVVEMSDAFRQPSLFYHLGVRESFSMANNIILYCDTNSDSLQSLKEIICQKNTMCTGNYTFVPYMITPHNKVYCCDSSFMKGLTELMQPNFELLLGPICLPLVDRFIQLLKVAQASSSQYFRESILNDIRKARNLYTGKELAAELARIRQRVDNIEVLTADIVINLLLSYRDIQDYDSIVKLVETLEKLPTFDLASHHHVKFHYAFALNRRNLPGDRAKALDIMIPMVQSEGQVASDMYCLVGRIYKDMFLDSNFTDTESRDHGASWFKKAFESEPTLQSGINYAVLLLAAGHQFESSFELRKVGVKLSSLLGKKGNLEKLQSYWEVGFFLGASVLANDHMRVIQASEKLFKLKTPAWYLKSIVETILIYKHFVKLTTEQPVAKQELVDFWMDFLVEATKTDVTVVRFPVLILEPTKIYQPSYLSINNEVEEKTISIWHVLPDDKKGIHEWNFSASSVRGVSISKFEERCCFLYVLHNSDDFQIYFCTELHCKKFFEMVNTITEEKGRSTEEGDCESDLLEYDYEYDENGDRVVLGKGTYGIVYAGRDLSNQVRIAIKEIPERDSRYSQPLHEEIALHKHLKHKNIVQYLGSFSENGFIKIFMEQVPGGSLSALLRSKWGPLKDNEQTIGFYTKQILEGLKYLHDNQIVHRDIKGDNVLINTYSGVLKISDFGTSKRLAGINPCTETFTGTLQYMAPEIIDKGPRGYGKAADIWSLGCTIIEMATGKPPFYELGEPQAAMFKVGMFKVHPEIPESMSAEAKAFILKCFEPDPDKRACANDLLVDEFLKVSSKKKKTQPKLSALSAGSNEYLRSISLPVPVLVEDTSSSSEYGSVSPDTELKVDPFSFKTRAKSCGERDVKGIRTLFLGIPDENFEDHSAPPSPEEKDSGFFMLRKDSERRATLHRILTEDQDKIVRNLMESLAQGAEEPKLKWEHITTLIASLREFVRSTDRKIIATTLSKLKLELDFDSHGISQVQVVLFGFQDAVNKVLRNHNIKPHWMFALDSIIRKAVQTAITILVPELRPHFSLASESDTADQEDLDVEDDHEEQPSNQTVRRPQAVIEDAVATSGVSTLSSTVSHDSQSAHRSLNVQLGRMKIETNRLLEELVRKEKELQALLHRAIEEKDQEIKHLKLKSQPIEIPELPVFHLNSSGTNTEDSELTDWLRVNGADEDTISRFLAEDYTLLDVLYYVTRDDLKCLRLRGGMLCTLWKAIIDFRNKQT
assay method text: blockers of MAP3K5 kinase activity – biochemical, AlphaScreen, primary screen (AID 1159602);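 note: 0% = median of compound wells and 100% = no enzyme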
condition notes: AlphaScreen MKK6 phosphorylation by ASK1, luminescence; at 7.44 µM; stronger effect = higher value
The campaign covered roughly 22,000 compounds. About 220 (1%) were called active. The sample as a whole holds a higher share of actives than the screen did.
value kind: inhibition (%)
The reply should be a number in %, with the unit left off.

[[record]]
compound = "O=C(NCCN1CCOCC1)C1CCN(c2ccc(Nc3ccccc3)nn2)CC1"
numeric_result = 6.22

[[record]]
compound = "O=C(NC1CC1)c1ccc(-c2nc(NC3CCN(Cc4ccccc4)CC3)c3ncn(C4CCCCC4)c3n2)cc1"
numeric_result = 9.66

[[record]]
compound = "CC(C)C[C@H](O)C(=O)NC1CCC(Nc2ccc3[nH]ncc3c2)CC1 (some centres not stated)"
numeric_result = -17

[[record]]
compound = "CC(C)N(CCNc1nc(Nc2ccccc2)nc2c1ncn2C(C)C)C(C)C"
numeric_result = 6.04

[[record]]
compound = "COc1ccc(CCNc2cc(Nc3cc(OC)c(OC)c(OC)c3)nc(N)n2)cc1"
numeric_result = -1.19


So what inhibition did COc1cc(NC(=O)c2cnc(-c3ccccc3)s2)cc(OC)c1OC get with Mitogen-activated protein kinase kinase kinase 5 (Homo sapiens) (UniProt Q99683)? 15
